The following compounds were reported with IC50 values on Hepatocyte growth factor receptor (Homo sapiens, UniProt P08581) in different studies.

Requested field: IC50. Item: O=c1ccc(-c2ccc(F)cc2)nn1Cc1ccc2c(c1)OCO2
10 to 1000 nM

Requested field: IC50. Item: COCCN(CCOC)C(=O)CN1CCC(n2cc(-c3cnc(N)c(-c4nc5ccccc5s4)c3)cn2)CC1
100 to 1000 nM

Requested field: IC50. Item: COC(=O)COc1cccc(-c2cnc(N)c(-c3nc4ccccc4s3)c2)c1
1000 to 20000 nM

Requested field: IC50. Item: CNCCOc1cc2nccc(Oc3c(F)cc(NC(=O)c4cnccc4OC)c(F)c3F)c2cc1OC
≤ 100 nM

Requested field: IC50. Item: CN(C)c1cccc(-c2ccc3nnc(C(F)(F)c4ccc5nc(NC(=O)C6CC6)cn5n4)n3c2)c1
< 30 nM

Requested field: IC50. Item: O=C(c1ccc(-c2cnc3c(c2)N(Cc2cc(Cl)ccc2C(F)(F)F)CCN3)cc1)N1CCN(c2nccs2)CC1
10000 to 100000 nM

Requested field: IC50. Item: CC(c1ccc2nc(NC(=O)C3CC3)cn2n1)c1nnc2ccc(-c3ccc(C#N)c(F)c3)cn12 (stereo not shown)
< 30 nM

Requested field: IC50. Item: O=C(Nc1cccc(CN2N=C(c3ccccc3O)CSC2=O)c1)c1cccnc1
10 to 1000 nM

Requested field: IC50. Item: Cn1cc(-c2ccc(=O)n(Cc3cccc(-c4ncc(OCCNC(=O)[C@@H]5C[C@@H](O)CN5)cn4)c3)n2)cn1
10 to 1000 nM

Requested field: IC50. Item: COc1ccc(F)cc1[C@@H](C)Oc1cc(-c2c(C)nn(CC(O)CO)c2C)cnc1N (stereo partly shown)
4300 nM

Requested field: IC50. Item: CCOC(=O)CNC(=O)c1ccc(-c2ccc(=O)n(Cc3cccc(NC(=O)OCC)c3)n2)cc1
10 to 1000 nM

Requested field: IC50. Item: CCOC(=O)Nc1cccc(Cn2nc(-c3cccc(C(=O)NCCCO)c3)ccc2=O)c1
10 to 1000 nM

Requested field: IC50. Item: O=C1CNc2ncc(I)cc2N1Cc1cc(C(F)(F)F)ccc1Cl
> 100000 nM

Requested field: IC50. Item: COCCOc1ccc(F)c(Cc2c[nH]c3ncc(Cl)cc23)c1Cl
≤ 10000 nM

Requested field: IC50. Item: O=C(c1ccc(-c2cnc3c(c2)N(Cc2ccccc2OC(F)(F)F)CCN3)cc1)N1CCC(N2CCCC2)CC1
1000 to 10000 nM

Requested field: IC50. Item: CN(CCO)c1c(C(=O)Nc2ccc(Oc3ccnc(N)c3Cl)c(F)c2)c(=O)n(-c2ccc(F)cc2)c2scnc12
100 to 1000 nM

---

The following compounds were reported with IC50 values on UniProt:P08581 in different studies.

Requested field: IC50. Item: Nc1ncc(-c2cnn(C3CCNCC3)c2)cc1-c1nc2c(Br)cc(OC(F)(F)F)cc2s1
1000 to 20000 nM

Requested field: IC50. Item: CNC(=O)c1cc(-c2ccc3nnc(C(F)(F)c4cc5cn(C)nc5cc4F)n3n2)ccn1
51.8 nM

Requested field: IC50. Item: CCOC(=O)Nc1cccc(Cn2nc(-c3cc(F)c(OCCCN(C)C)c(F)c3)ccc2=O)c1
10 to 1000 nM

Requested field: IC50. Item: Cn1cc(C(=O)Nc2ccc(Oc3ccnc4ccc5c(c34)OCCO5)cc2F)c(=O)n(-c2ccc(F)cc2)c1=O
500 to 5000 nM

Requested field: IC50. Item: COc1ncccc1-c1cnc(N)c(OC(C)c2cc(F)ccc2-n2nccn2)c1 (stereo not shown)
6850 nM

Requested field: IC50. Item: CCOC(=O)Nc1cccc(Cn2nc(-c3ccc(OCCCCOC)cc3)ccc2=O)c1
10 to 1000 nM

Requested field: IC50. Item: Fc1cc(F)cc(-c2ccc3nnc(Cc4ccc5ncccc5c4)n3n2)c1
< 100 nM

Requested field: IC50. Item: CNCCOc1ccc2c(Oc3c(F)cc(NC(=O)c4cnccc4OC)cc3F)ccnc2c1
≤ 100 nM

Requested field: IC50. Item: Cn1cc(-c2cnc3ccc(Cc4nnc5sc([C@@H](N)CC6CC6)nn45)cc3c2)cn1
< 100 nM

Requested field: IC50. Item: O=C(NCCc1ccccc1)c1cnc2c(c1)N(Cc1cc(Cl)ccc1Cl)CCN2
> 100000 nM

Requested field: IC50. Item: Fc1cc2ncccc2cc1Cc1nnc2sc(C(F)(F)F)nn12
1000 to 10000 nM

Requested field: IC50. Item: Cc1ccc2nnc(Cc3ccc4ncc(-c5cnn(C6CN(C)C6)c5)cc4c3)n2n1
< 100 nM

Requested field: IC50. Item: COc1cc2c(Oc3ccc(NC(=O)c4c(C)n(C)n(-c5ccccc5)c4=O)cc3F)ccnc2cc1OCC(C)(C)O
10 nM

Requested field: IC50. Item: O=C(c1ccc(-c2cnc3c(c2)N(C(=O)Cc2ccccc2)CCN3)cc1)N1CCC(N2CCCC2)CC1
10000 to 100000 nM

Requested field: IC50. Item: Nc1ncc(-c2cnn(C3CCNCC3)c2)cc1-c1oc2ccccc2c1-c1cccc(Cl)c1F
100 to 1000 nM

Requested field: IC50. Item: CCOc1ccn(-c2ccc(F)cc2)c(=O)c1C(=O)Nc1ccc(Oc2ccnn3ccc(-c4cccc(CN(C)C)c4)c23)c(F)c1
< 40 nM

---

The following compounds were reported with pIC50 values on Hepatocyte growth factor receptor (Homo sapiens, UniProt P08581) in different studies.
pIC50: −log10 of the molar value.

Requested field: pIC50. Item: CN1CCCC1CCOC(=O)Nc1cccc(Cn2nc(-c3cc(F)cc(F)c3)ccc2=O)c1 (centres unmarked)
6.00 to 8.00

Requested field: pIC50. Item: CC(=O)N[C@H](C(=O)NCCOc1cnc(-c2cccc(Cn3nc(-c4cnn(C)c4)ccc3=O)c2)nc1)C(C)C
6.00 to 8.00

Requested field: pIC50. Item: CN1CCN(CCCOC(=O)Nc2cccc(Cn3nc(-c4cccc(C#N)c4)ccc3=O)c2)CC1
6.00 to 8.00

Requested field: pIC50. Item: CN1CCN(c2cc(-c3cnc4c(c3)N(Cc3c(F)ccc(F)c3Cl)CCN4)ccn2)CC1
6.00 to 7.00

Requested field: pIC50. Item: Cn1cc(-c2ccc3sc(=O)n(Cc4cccc(-c5ncc(OCCN6CCOCC6)cn5)c4)c3c2)cn1
6.00 to 8.00

Requested field: pIC50. Item: Cc1cc(F)ccc1-n1ccc(C(=O)Nc2ccc(Oc3ccnc4cc(OCCCN5CCOCC5)c5c(c34)OCCO5)c(F)c2)n1
≥ 7.30

Requested field: pIC50. Item: Cn1cc(-c2ccc3nnc(Sc4ccc5nccc(NC(=O)OC(C)(C)C)c5c4)n3n2)cn1
5.00 to 6.00

Requested field: pIC50. Item: CNC(=O)c1c(F)cc(-c2ccc3nnc(C(F)(F)c4ccc5nn(C)cc5c4F)n3n2)cc1F
7.44

Requested field: pIC50. Item: COc1ccn(-c2ccc(F)cc2)c(=O)c1C(=O)Nc1ccc(Oc2ccnc3cc(OCCCC#N)c4c(c23)OCCO4)cc1Cl
≥ 7.30

Requested field: pIC50. Item: CC(Oc1cc(-c2ccnn2C)cnc1N)c1cc(F)ccc1-c1ncco1 (centres unmarked)
5.55

Requested field: pIC50. Item: O=C(NCc1cccc2ccccc12)c1cnc2c(c1)N(Cc1cc(Cl)ccc1Cl)CCN2
< 4.00

Requested field: pIC50. Item: Cn1cc(-c2ccc3nnc(Sc4ccc5ncccc5c4F)n3n2)cn1
> 7.00

Requested field: pIC50. Item: Cc1cc(-c2cc3c(s2)Cc2c(-c4ccc5cnn(C)c5c4)n[nH]c2-3)ccn1
< 6.00

Requested field: pIC50. Item: Cn1ncc2ccc(-c3n[nH]c4c3Cc3sc(-c5ccc(CN6CC7(COC7)C6)cc5)cc3-4)cc21
6.00 to 6.52

Requested field: pIC50. Item: Nc1ncc(-c2cc3ccccc3[nH]2)cc1-c1nc2ccccc2s1
4.70 to 6.00

Requested field: pIC50. Item: CN1C(=O)COc2c1cnc1cc(F)c(C(F)(F)c3nnc4ccc(-c5cnn(C)c5)nn34)cc21
9.00

Requested field: pIC50. Item: COc1ncc(F)cc1C(C)Oc1cc(-c2c[nH]nc2C)cnc1N (centres unmarked)
5.25

Requested field: pIC50. Item: COCCOc1cnc2c(Oc3c(F)cc(NC(=O)c4ccccc4F)cc3F)ccnc2c1
≥ 7.00

Requested field: pIC50. Item: Cc1cc(F)cc(-c2ccc3nnc(C(F)(F)c4ccc5nc(NC(=O)C6CC6)cn5n4)n3c2)c1
> 7.52

Requested field: pIC50. Item: CC(c1cc(F)ccc1F)N1C(=O)CNc2ncc(-c3ccc(C(=O)N4CCC[C@H]4CN4CCCC4)cc3)cc21 (some centres unmarked)
4.00 to 5.00

Requested field: pIC50. Item: CCc1ccc2nnc(Cc3ccc4ncc(Br)cc4c3F)n2n1
6.00 to 7.00

Requested field: pIC50. Item: O=C(Nc1cc(F)c(Oc2ccnc3cc(OC4CNC4)ccc23)c(F)c1)c1cnccc1OC1CC1
≥ 7.00

Requested field: pIC50. Item: Nc1ncc(-c2cccc(C(=O)N3CCN(CC(=O)N4CCCC4)CC3)c2)cc1-c1nc2ccccc2s1
4.70 to 6.00

Requested field: pIC50. Item: CC(C)(C)OC(=O)NCCOc1cnc(-c2cccc(Cn3nc(-c4cccc(C#N)c4)ccc3=O)c2)nc1
6.00 to 8.00

Requested field: pIC50. Item: COc1cccc(-c2ccc3nnc(C(C)c4ccc5nc(NC(=O)C6CC6)cn5n4)n3c2)c1 (centres unmarked)
> 7.52

Requested field: pIC50. Item: C[C@@H]1CN(Cc2ccc(-c3cc4c(s3)Cc3c(-c5ccc6cn[nH]c6c5)n[nH]c3-4)cn2)C[C@H](C)O1
< 6.00

Requested field: pIC50. Item: CCCOc1ccncc1C(=O)Nc1cc(F)c(Oc2ccnc3cc(OCCNC)c(OC)cc23)cc1F
≥ 7.00

Requested field: pIC50. Item: CCOc1ccncc1C(=O)Nc1cc(F)c(Oc2ccnc3cc(OCCCN4CCOCC4)c(OC)cc23)c(F)c1
≥ 7.00

Requested field: pIC50. Item: CN(C)CCNC(=O)c1ccc(-c2cnc3c(c2)N(C(=O)c2ccccc2)CCN3)cc1
4.00 to 5.00

Requested field: pIC50. Item: CNCCOc1cc2nccc(Oc3c(F)cc(NC(=O)c4ncccc4OC4CC4)cc3F)c2cc1OC
≥ 7.00

Requested field: pIC50. Item: Nc1ncc(-c2cnn(C3CCNCC3)c2)cc1-c1nc2cc(OC(F)(F)F)ccc2s1
6.00 to 7.00

Requested field: pIC50. Item: NS(=O)(=O)c1cccc2c1C(=O)c1cccc(O)c1C2=O
< 4.00
